Quick reference for GI50 among some molecules
Tested on: SNB-75
Assay: NCI tumour cell line growth inhibition, 48 h
Calls of active or inactive are those of the source. No stated cut-off is given here; in the data, active = GI50 up to about 1.1 µM and inactive = higher.

Check out these entries, answers already filled in.
O=C(OCc1ccccc1)N1N=NC2C1C1CC(OCc3ccccc3)(OCc3ccccc3)C2O1 (stereo unspecified)	> 100 µM (inactive)
CC1=NN(C(=O)c2ccncc2)C(=O)C1	> 100 µM (inactive)
CC1=NN(C(=O)c2ccncc2)C(=O)C1/N=N/c1ccc2ccccc2c1 (stereo unspecified)	> 100 µM (inactive)

Returns the measured GI50 for the input molecule. Input: CC(C)Cn1cnc2c(NCC(C)O)nc3ccccc3c21 (stereo unspecified) 56.1 µM (inactive)

Returns the measured GI50 for the input molecule. Input: Oc1ccccc1-c1nn2c(CCCCCCCCc3nnc4sc(-c5ccccc5O)nn34)nnc2s1 5.94 µM (inactive)

Returns the measured GI50 for the input molecule. Input: N#CC1=C(S)N(C2OC(CO)C(O)C(O)C2O)C(c2ccccc2)=CC1c1cccs1 (stereo unspecified) 20.5 µM (inactive)

Returns the measured GI50 for the input molecule. Input: CC1(Sc2ccccc2)CN(Cc2ccccc2)C1=O (stereo unspecified) 39.6 µM (inactive)

Returns the measured GI50 for the input molecule. Input: O=C1c2nc3n(c2C(=O)c2c1nc1n2CCC1)CCC3 15.2 µM (inactive)

Returns the measured GI50 for the input molecule. Input: COC(=O)c1ccccc1/C=C1\Cc2cc(C)c(C)cc2C1=O 26.5 µM (inactive)

Returns the measured GI50 for the input molecule. Input: Cc1nc2c(n1C(C)(C)C)C(=O)c1ccccc1C2=O 31.9 µM (inactive)

Returns the measured GI50 for the input molecule. Input: Cc1cc2nc(N3C(=O)/C(=C/c4ccc(N(C)C)cc4)N=C3c3ccccc3)sc2cc1C 22.9 µM (inactive)

---

Quick reference for GI50 among some molecules
System: SN12C
Experiment: NCI tumour cell line growth inhibition, 48 h
Calls of active or inactive are those of the source. Cut-off read from the data, not from the text of the source: active = GI50 up to about 1.1 µM and inactive = higher.

Check out these entries, answers already filled in.
Cc1ccc(/N=N/C(=N/NC(=O)c2cc(Cl)ccc2O)c2ccc(N(CCC#N)CCC#N)cc2C)cc1	28.4 µM (inactive)
CC(=O)OC1CN2CCC1CC2 (stereo not given) [ACECLIDINE]	> 100 µM (inactive)
CCOC(=O)CC1Nc2ccccc2C12CCc1c([nH]c3ccccc13)C2C(=O)OCC (stereo not given)	24.7 µM (inactive)
COc1cccc(C2CC(=O)c3cc(N4CCCC4)ccc3N2)c1 (stereo not given)	0.0418 µM (active)
C[As+](C)(c1ccc(Br)c([N+](=O)[O-])c1)c1ccc(Br)c([N+](=O)[O-])c1	> 100 µM (inactive)

Returns the measured GI50 for the input molecule. Input: O=C1CCCc2ccc([N+](=O)[O-])c(O)c21 65 µM (inactive)

Returns the measured GI50 for the input molecule. Input: COC(=O)c1onc(C2OC(C)(C)OC2C(O)COC(c2ccccc2)(c2ccccc2)c2ccccc2)c1C(=O)OC (stereo not given) > 100 µM (inactive)

Returns the measured GI50 for the input molecule. Input: N#CC(=N)c1ncn(CCO)c1NC(=O)C(F)(F)F > 100 µM (inactive)

Returns the measured GI50 for the input molecule. Input: O=C(NNC(=S)Nc1ccc(Cl)cc1)C12CC3CC(CC(C3)C1)C2 6.52 µM (inactive)

Returns the measured GI50 for the input molecule. Input: Nc1nc(NCC2(CO)CC2)cc(=O)[nH]1 > 100 µM (inactive)

---

Tested on: MDA-MB-435
Assay: NCI tumour cell line growth inhibition, 48 h
Calls of active or inactive are those of the source. No stated cut-off is given here; in the data, active = GI50 up to about 1.1 µM and inactive = higher.
Reply using exactly one outcome from Yes (active), No (inactive)

Known results for molecules:
COc1ccc(C2SCC(=O)N2c2ccc(-n3c(-c4ccccc4)nc4ccccc4c3=O)cc2)cc1 (configuration not stated)	No
Cc1c(Cl)c(=O)oc2cc(OCC(O)COC(C)C)ccc12 (configuration not stated)	No
C(=N\NC1=NCCCN1)/c1ccc(-c2cn3cc(/C=N/NC4=NCCCN4)ccc3n2)cc1	No
Cc1ccccc1NC(=S)N/N=C(/c1ccccc1)c1ccccn1	Yes
CCN(CC)CCNC(=O)c1cc2cc(NC(=O)c3cc4cc(N)ccc4[nH]3)ccc2[nH]1	No
C=C[C@@]1(C)CC[C@@H]2[C@@]3(C1)O[C@H]3CC1[C@](C)(C(=O)OC)CCC[C@@]12C (some centres not stated)	No

Assay result, entry Brc1ccccc2cc(-c3ccccc3)nc1-2 — outcome? No

Assay result, entry O=[N+]([O-])C(=C(N1CCOCC1)N1CCOCC1)/C(Cl)=C(\Cl)[N+](=O)[O-] — outcome? No

Assay result, entry O=C(O)c1ccc(C(=O)O)c(C(=O)Nc2ccc3c(c2)C(=O)c2ccccc2-3)c1 — outcome? No

Assay result, entry C(=C\c1cc(-c2ccc3ccccc3n2)nc2ccc3ccccc3c12)/c1ccc2ccccc2n1 — outcome? No

Assay result, entry COc1cccc(CCCNC(=O)Cc2ccccc2CO)c1 — outcome? No

Assay result, entry CCN(CC)CCC(=O)c1ccc(Sc2ccc(F)cc2)cc1 — outcome? No

Assay result, entry O=C(Nc1nncs1)NS(=O)(=O)n1c(=S)sc2ccccc21 — outcome? No

---

System: EKVX
Experiment: NCI tumour cell line growth inhibition, 48 h
Active and inactive are the calls of the source. Rule as the data show it: active = GI50 up to about 1.1 µM and inactive = higher.
Quick reference for GI50 among some molecules

COc1cc(NC(C)c2ccc3c(c2)OCCO3)cc(OC)c1OC (stereo not drawn)	33 µM (inactive)
COc1cc(Nc2nc3ccc(C(F)(F)F)cc3nc2-c2ccccc2)cc(OC)c1OC	18.2 µM (inactive)

Returns the measured GI50 for the input molecule. Input: CCSc1nc(N)c2c(-c3ccc(OC)c(OC)c3)c3c(nc2n1)CCCC3 > 100 µM (inactive)

Returns the measured GI50 for the input molecule. Input: CC(=O)Oc1cc2c(=O)oc3c(OC(C)=O)c(OC(C)=O)c(OC(C)=O)c4c(=O)oc(c1OC(C)=O)c2c34 74 µM (inactive)

Returns the measured GI50 for the input molecule. Input: Cc1cn(C2CC(n3cncn3)C(C(C)O)O2)c(=O)[nH]c1=O (stereo not drawn) > 100 µM (inactive)

Returns the measured GI50 for the input molecule. Input: Cc1ccc(N(C(=O)CC(=O)N2N=C(c3ccccc3)C(/N=N/c3ccc([N+](=O)[O-])cc3)C2=O)C(=O)c2ccc(Cl)cc2)cc1 (stereo not drawn) 99.5 µM (inactive)

Returns the measured GI50 for the input molecule. Input: COc1ccc(C[C@H]2COC(=O)[C@@H]2Cc2cc(OC)c(OC)c(OC)c2)cc1OC > 65.8 µM (inactive)

Returns the measured GI50 for the input molecule. Input: NS(=O)(=O)c1cc2c(cc1Cl)NC(/C(=N/NC(=O)c1ccncc1)C1C(=O)NC(=O)NC1=O)=NS2(=O)=O > 100 µM (inactive)

Returns the measured GI50 for the input molecule. Input: CC(C)CC(=O)NS(=O)(=O)c1ccccc1 > 100 µM (inactive)

Returns the measured GI50 for the input molecule. Input: COc1cccc2c1C(=O)c1c(O)c3c(c(O)c1C2=O)C[C@@](O)(/C(C)=N/NC(=O)c1ccc(Cl)c(Cl)c1)C[C@@H]3OC1CC(N)C(O)C(C)O1 (stereo partly drawn) 0.904 µM (active)

Returns the measured GI50 for the input molecule. Input: CN(C)CCNC(=O)c1ccc2nc3c(nc2c1)C(=O)c1ccccc1-3 > 100 µM (inactive)

Returns the measured GI50 for the input molecule. Input: NN/C(=N\S(=O)(=O)c1cc2ccccc2s1)Nc1ccc(Cl)cc1 19.2 µM (inactive)

Returns the measured GI50 for the input molecule. Input: COc1ccc(C2SCC(=O)N2c2ccc(-n3c(-c4ccccc4)nc4ccccc4c3=O)cc2)cc1 (stereo not drawn) > 100 µM (inactive)

---

Quick reference for GI50 among some compounds
Test system: HT-29
Experiment: NCI tumour cell line growth inhibition, 48 h
The source made the active and inactive calls. Cut-off read from the data, not from the text of the source: active = GI50 up to about 1.1 µM and inactive = higher.

Find GI50 (HT-29) for the entry CC(C)(C)OC(=O)[N+](=N)C(=O)C1CCC(=O)N1C(=O)OCc1ccccc1 (stereo unspecified) > 100 µM (inactive)

Find GI50 (HT-29) for the entry CC1(C)c2ccccc2C(=O)C12CCC(=O)CC2 > 100 µM (inactive)

Find GI50 (HT-29) for the entry O=C(O)c1ccccc1C(=O)c1ccco1 > 100 µM (inactive)

Find GI50 (HT-29) for the entry Cc1c(C)c(S(=O)(=O)N(CCCCCCN)OCCCN)c(C)c2c1OC(C)(C)CC2 5.6 µM (inactive)

Find GI50 (HT-29) for the entry O=C(O)CSc1ncccc1[N+](=O)[O-] > 100 µM (inactive)

Find GI50 (HT-29) for the entry O=S(=O)(O)c1ccc(-c2nnc(-c3ccccn3)nc2-c2ccc(S(=O)(=O)O)o2)o1 > 100 µM (inactive)

Find GI50 (HT-29) for the entry COC1=CC(=O)C2C(C1=O)C(c1ccc(Cl)cc1)[C@@H]2C (stereo partly specified) > 100 µM (inactive)

Find GI50 (HT-29) for the entry Oc1ccccc1-c1nn2c(CCCCCCCCc3nnc4sc(-c5ccccc5O)nn34)nnc2s1 11.1 µM (inactive)

Find GI50 (HT-29) for the entry CNc1cc2oc(=O)cc(C)c2cc1C > 100 µM (inactive)

Find GI50 (HT-29) for the entry c1cc2c(cc1[C@@H]1OC[C@@H]3[C@H]1CO[C@H]3c1ccc3c(c1)OCO3)OCO2 60.8 µM (inactive)

Find GI50 (HT-29) for the entry O=C(CSc1nc(-c2ccccc2)c(-c2ccccc2)[nH]1)N/N=C/c1ccc(O)cc1 18.9 µM (inactive)
